- Tested on: Yap1 mRNA
- protocol-text: Antisense inhibition of human Yap1 in A-431 cells by cEt gapmers, single dose (Example 2, RTS4814)
- Format: cell-based
- experimental-context: Yap1 mRNA as percent of untreated control; A-431 cells; 3-10-3 cEt gapmers targeting SEQ ID NO.: 1, and 2; Table 31
Strand notation (5' to 3'): a small letter for the sugar, then the base; units joined by * are phosphorothioate-linked, units joined directly phosphodiester-linked; [ ] holds rarer units or linkages, { } end groups; capitals alone tell only the bases. k = constrained ethyl (cEt); [5mC] = 5-methylcytosine; d = 2'-deoxy (DNA)
In this scheme, each record receives a class according to its YAP1 (% UTC); the ranges are interval 1 (below 20 % UTC), interval 2 (20 % UTC to below 40 % UTC), interval 3 (40 % UTC or more)

Ask: # bin lookup: classify 1075313 (antisense k[5mC]*kT*kT*dA*dA*dT*dT*dG*dA*dA*d[5mC]*dT*d[5mC]*kA*kG*kG) [compound 1075313] by its YAP1 (% UTC)
Result: interval 2

Ask: # bin lookup: classify 1074481 (kA*kA*kT*dA*dT*dG*dG*dT*d[5mC]*dA*dT*dT*dT*kG*k[5mC]*k[5mC]; antisense) [compound 1074481] by its YAP1 (% UTC)
Result: interval 1

Ask: # bin lookup: classify 1074417 (kT*k[5mC]*kT*dT*dT*dA*dG*dA*dG*d[5mC]*d[5mC]*dA*dA*k[5mC]*kT*kG; antisense) [compound 1074417] by its YAP1 (% UTC)
Result: interval 1

Ask: # bin lookup: classify 1075153 (kA*kT*kT*dA*dT*dA*dA*dT*dG*dG*dG*dA*dG*kG*kA*kT; antisense) [compound 1075153] by its YAP1 (% UTC)
Result: interval 2

Ask: # bin lookup: classify 1075825 (k[5mC]*k[5mC]*k[5mC]*d[5mC]*dT*dA*dA*dA*dG*dA*dA*dG*dA*kT*kT*kT; antisense) [compound 1075825] by its YAP1 (% UTC)
Result: interval 3

Ask: # bin lookup: classify 1074737 (kT*kT*k[5mC]*dA*dG*dG*dT*d[5mC]*dA*dG*dT*dA*d[5mC]*kA*kG*kA; antisense) [compound 1074737] by its YAP1 (% UTC)
Result: interval 1

Ask: # bin lookup: classify 1074673 (antisense kA*kG*kG*d[5mC]*dA*d[5mC]*dT*d[5mC]*d[5mC]*dT*dT*d[5mC]*d[5mC]*kA*kA*kG) [compound 1074673] by its YAP1 (% UTC)
Result: interval 3

Ask: # bin lookup: classify 1076529 (k[5mC]*kT*kA*dT*dA*dA*dT*dG*dA*dG*dG*dA*dT*kT*kA*k[5mC]; antisense) [compound 1076529] by its YAP1 (% UTC)
Result: interval 3

Ask: # bin lookup: classify 1075505 (kG*k[5mC]*kT*dA*dA*dA*dT*dT*dA*d[5mC]*dA*dG*dA*kG*kG*kT; antisense) [compound 1075505] by its YAP1 (% UTC)
Result: interval 1

Ask: # bin lookup: classify 1075665 (antisense kA*kT*kT*dT*dA*dG*dT*dT*dG*dT*dG*d[5mC]*dA*k[5mC]*kA*kG) [compound 1075665] by its YAP1 (% UTC)
Result: interval 3

Ask: # bin lookup: classify 1075761 (kG*kG*kA*dG*dA*dA*dA*dA*dA*d[5mC]*dT*dA*d[5mC]*kG*kG*kA; antisense) [compound 1075761] by its YAP1 (% UTC)
Result: interval 1

Ask: # bin lookup: classify 1075729 (kT*kA*kT*dT*dT*dA*dA*dA*dA*dA*dT*dA*dG*k[5mC]*kG*k[5mC]; antisense) [compound 1075729] by its YAP1 (% UTC)
Result: interval 3
